Catalogue of Emax values
Molecular target: ER-α in MCF-7 cells (Homo sapiens)
Sequence (P03372 whole entry): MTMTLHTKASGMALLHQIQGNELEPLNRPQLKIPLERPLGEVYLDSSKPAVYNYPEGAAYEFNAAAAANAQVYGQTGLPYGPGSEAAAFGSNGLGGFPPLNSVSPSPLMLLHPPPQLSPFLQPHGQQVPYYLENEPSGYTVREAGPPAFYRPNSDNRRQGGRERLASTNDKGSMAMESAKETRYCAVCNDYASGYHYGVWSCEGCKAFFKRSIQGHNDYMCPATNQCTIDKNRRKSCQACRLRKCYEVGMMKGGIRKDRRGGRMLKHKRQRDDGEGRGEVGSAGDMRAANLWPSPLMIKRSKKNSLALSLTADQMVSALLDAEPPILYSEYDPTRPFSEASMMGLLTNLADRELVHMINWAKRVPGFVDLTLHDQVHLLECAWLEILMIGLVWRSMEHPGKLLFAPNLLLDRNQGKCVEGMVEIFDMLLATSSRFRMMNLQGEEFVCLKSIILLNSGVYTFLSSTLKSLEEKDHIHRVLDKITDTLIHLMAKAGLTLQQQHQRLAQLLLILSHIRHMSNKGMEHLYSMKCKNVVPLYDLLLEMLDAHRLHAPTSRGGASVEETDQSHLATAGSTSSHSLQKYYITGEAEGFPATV
Test: Breast cancer cell ER-α in cell western assay (SP1)
Format: cell-based
Set-up: endogenous in cells; host or cells: MCF-7
Conditions: MCF7, SP1 antibody, 4 or 24 hr post compound addition, read-out: ER-α In Cell Western Assay (SP1) Max Response
propertyMeasured: Emax

In [3]: df
Out[3]:
                             smilesnotation                        targetsystem  measurement
0  CC/C(=C(/c1ccc(/C=C/C(=O)Nc2nccs2)cc1)c1ccc2[nH]ncc2c1)c1ccccc1  ER-α in MCF-7 cells (Homo sapiens)        ≥ 40%
1  CC/C(=C(/c1ccc(/C=C/C(=O)O)cc1)c1ccc2[nH]ncc2c1)c1ccc2nccn2c1  ER-α in MCF-7 cells (Homo sapiens)        < 40%
2  CC/C(=C(/c1ccc(/C=C/C(=O)O)cc1)c1ccc2[nH]ncc2c1)c1cccc(OCc2cccnc2)c1  ER-α in MCF-7 cells (Homo sapiens)        ≥ 40%
3  CC/C(=C(/c1ccc(/C=C/C(=O)O)cc1)c1coc2c(O)cccc12)c1ccccc1  ER-α in MCF-7 cells (Homo sapiens)        ≥ 40%

---

System: MCF-7 cells
Assay: Breast cancer cell viability assay (CellTiter-Glo, 5 days)
Type: cell-based
Settings: Homo sapiens, MCF7, 120 h, 5 days' compound exposure
pIC50: −log10 of the molar value.
# reported pIC50; entries follow
propertyMeasured: pIC50

>>> print(df.to_string())
                                   molecule  measurement
0  CC/C(=C(/c1ccc(/C=C/C(=O)O)cc1)c1ccc2[nH]ncc2c1)c1cccc(OCCCOC)c1 [Compound 342]       ≥ 7.00
1  CC/C(=C(/c1ccc(/C=C/C(=O)O)cc1)c1ccc2[nH]ncc2c1)c1cnsc1 [Compound 225]       < 7.00
2  CC/C(=C(/c1ccc(/C=C/C(=O)O)cc1)c1ccc2[nH]ncc2c1)c1cccnc1C [Compound 217]       < 7.00
3  CC/C(=C(/c1ccc(/C=C/C(=O)NC2CCCC2)cc1)c1ccc2[nH]ncc2c1)c1ccccc1 [Compound 431]       ≥ 7.00

---

pIC50 values, listed per item
Test system: MCF-7 cells
Assay: Breast cancer cell viability assay (CellTiter-Glo, 5 days)
Format: cell-based
Settings: Homo sapiens, MCF7, 120 h, 5 days' compound exposure
pIC50: −log10 of the molar value.
propertyMeasured: pIC50

In [3]: df
Out[3]:
                             smilesnotation  measurement
0  CC/C(=C(/c1ccc(/C=C/C(=O)O)cc1)c1ccc2[nH]ncc2c1)c1ccc(Cc2ccccc2)cc1       ≥ 7.00
1  CC/C(=C(/c1ccc(/C=C/C(=O)O)cc1)c1cc(F)c2[nH]ccc2c1)c1ccccc1       ≥ 7.00
2  CC/C(=C(/c1ccc(/C=C/C(=O)O)cc1)c1ccc2[nH]nc(F)c2c1)c1cscc1C       ≥ 7.00
3  CC/C(=C(/c1ccc(/C=C/C(=O)O)cc1)c1ccc2[nH]ncc2c1)c1ccc2c(c1)N(C)C(=O)CO2       < 7.00
4  CC/C(=C(/c1ccc(/C=C/C(=O)O)cc1)c1ccc2nncn2c1)c1ccccc1       < 7.00
5  CC/C(=C(/c1ccc(/C=C/C(=O)O)cc1)c1ccc2[nH]ncc2c1)c1ccnn1C       < 7.00
6  CC/C(=C(/c1ccc(/C=C/C(=O)O)cc1)c1ccc2[nH]ncc2c1)c1ccc2c(c1)OCCO2       ≥ 7.00
